# Test system: Fusobacterium necrophorum
# assayComment: Antibacterial activity against Fusobacterium necrophorum assessed as resistant isolates by CLSI agar dilution method
# Type: functional
propertyName: Activity (%)
Numbers only, in %.

Below is a list of compounds. For each, state its recorded Activity.
1. C[C@@H](O)[C@H]1C(=O)N2C(C(=O)O)=C(S[C@@H]3CN[C@H](CNS(N)(=O)=O)C3)[C@H](C)[C@H]12
2. CCC[C@@H]1C[C@@H](C(=O)N[C@@H]([C@H]2O[C@H](SC)[C@H](O)[C@@H](O)[C@H]2O)[C@H](C)Cl)N(C)C1
3. C[C@@H](O)[C@H]1C(=O)N2C(C(=O)O)=C(SCCNC=N)C[C@H]12 [IMIPENEM ANHYDROUS]
4. CC1(C)S[C@@H]2[C@H](NC(=O)Cc3ccccc3)C(=O)N2[C@H]1C(=O)O
5. CCN1CCN(C(=O)N[C@@H](C(=O)N[C@@H]2C(=O)N3[C@@H]2SC(C)(C)[C@@H]3C(=O)O)c2ccccc2)C(=O)C1=O
6. O=C(N[C@H](CO)[C@H](O)c1ccc([N+](=O)[O-])cc1)C(Cl)Cl

1. 0
2. 7
3. 4
4. 11
5. 10
6. 4

* * *

# Tested on: Clostridium septicum
# assayComment: Antibacterial activity against beta-lactamase producing Clostridium septicum by CLSI agar dilution method
# Format: functional
Record form. Attribute: MIC50. Fill in for each entry.
Numbers only, in µg/mL.

Record excerpt, results attached:
compound	MIC50, µg/mL
C[C@@H](O)[C@H]1C(=O)N2C(C(=O)O)=C(SCCNC=N)C[C@H]12 [IMIPENEM ANHYDROUS]	0.25
O=C(N[C@H](CO)[C@H](O)c1ccc([N+](=O)[O-])cc1)C(Cl)Cl [CHLORAMPHENICOL]	4
C[C@@H](O)[C@H]1C(=O)N2C(C(=O)O)=C(S[C@@H]3CN[C@H](C(=O)N(C)C)C3)[C@H](C)[C@H]12 [MEROPENEM]	0.03

We now examine a further compound.
Checklist item: MIC50 tested on Clostridium septicum, entry CO[C@@]1(NC(=O)CSCC#N)C(=O)N2C(C(=O)O)=C(CSc3nnnn3C)CS[C@@H]21 [CEFMETAZOLE] , value?
1

* * *

# Test system: Prevotella melaninogenica
# assayComment: Antibacterial activity against Prevotella melaninogenica by CLSI agar dilution method
# Type: functional
Would you mind telling me the reported MIC90 of each entry?
One number for each entry, in µg/mL.

Here is how some molecules turned out for MIC90.
molecule	uom	valueReported
CCN1CCN(C(=O)N[C@@H](C(=O)N[C@@H]2C(=O)N3[C@@H]2SC(C)(C)[C@@H]3C(=O)O)c2ccccc2)C(=O)C1=O [PIPERACILLIN]	µg/mL	128
CC1(C)S[C@@H]2[C@H](NC(=O)Cc3ccccc3)C(=O)N2[C@H]1C(=O)O [PENICILLIN G]	µg/mL	64
CO[C@@]1(NC(=O)CSCC#N)C(=O)N2C(C(=O)O)=C(CSc3nnnn3C)CS[C@@H]21 [CEFMETAZOLE]	µg/mL	8

Kindly give each listed record's MIC90.
1. C[C@@H](O)[C@H]1C(=O)N2C(C(=O)O)=C(S[C@@H]3CN[C@H](C(=O)Nc4cccc(C(=O)O)c4)C3)[C@H](C)[C@H]12
2. C[C@H]1COc2c(N3CCN(C)CC3)c(F)cc3c(=O)c(C(=O)O)cn1c23.C[C@H]1COc2c(N3CCN(C)CC3)c(F)cc3c(=O)c(C(=O)O)cn1c23.O [LEVOFLOXACIN]
3. C[C@@H](O)[C@H]1C(=O)N2C(C(=O)O)=C(SCCNC=N)C[C@H]12 [IMIPENEM ANHYDROUS]

0.5
16
0.5

* * *

# System: Prevotella buccae
# assayComment: Antibacterial activity against Prevotella buccae assessed as susceptible isolates by CLSI agar dilution method
# Type: functional, Segatella buccae
propertyName: Activity (%)
Give bare numbers, in %.

Parameters: items (list). Returns: Activity for each item.
1. CCC[C@@H]1C[C@@H](C(=O)N[C@@H]([C@H]2O[C@H](SC)[C@H](O)[C@@H](O)[C@H]2O)[C@H](C)Cl)N(C)C1 [CLINDAMYCIN]
2. C[C@@H](O)[C@H]1C(=O)N2C(C(=O)O)=C(S[C@@H]3CN[C@H](CNS(N)(=O)=O)C3)[C@H](C)[C@H]12 [DORIPENEM]
3. O=C(N[C@H](CO)[C@H](O)c1ccc([N+](=O)[O-])cc1)C(Cl)Cl [CHLORAMPHENICOL]
4. C[C@@H](O)[C@H]1C(=O)N2C(C(=O)O)=C(S[C@@H]3CN[C@H](C(=O)N(C)C)C3)[C@H](C)[C@H]12 [MEROPENEM]
5. CO[C@@]1(NC(=O)CSCC#N)C(=O)N2C(C(=O)O)=C(CSc3nnnn3C)CS[C@@H]21 [CEFMETAZOLE]
6. C[C@@H](O)[C@H]1C(=O)N2C(C(=O)O)=C(S[C@@H]3CN[C@H](C(=O)Nc4cccc(C(=O)O)c4)C3)[C@H](C)[C@H]12
7. Cc1ncc([N+](=O)[O-])n1CCO [METRONIDAZOLE]

1: 69; 2: 100; 3: 100; 4: 100; 5: 94; 6: 100; 7: 94

Field: Activity. Fill in for each record below.
1. CC1(C)S[C@@H]2[C@H](NC(=O)Cc3ccccc3)C(=O)N2[C@H]1C(=O)O [PENICILLIN G]
2. C[C@@H](O)[C@H]1C(=O)N2C(C(=O)O)=C(SCCNC=N)C[C@H]12 [IMIPENEM ANHYDROUS]
3. CCN1CCN(C(=O)N[C@@H](C(=O)N[C@@H]2C(=O)N3[C@@H]2SC(C)(C)[C@@H]3C(=O)O)c2ccccc2)C(=O)C1=O [PIPERACILLIN]

[6, 94, 71]

* * *

# System: Peptoniphilus asaccharolyticus
# assayComment: Antibacterial activity against beta-lactamase producing Peptoniphilus asaccharolyticus by CLSI agar dilution method
# Assay type: functional
propertyName: MIC50

Answered cases to consult:
smilesRepresentation	valueReported
C[C@@H](O)[C@H]1C(=O)N2C(C(=O)O)=C(S[C@@H]3CN[C@H](CNS(N)(=O)=O)C3)[C@H](C)[C@H]12	0.06 µg/mL
C[C@@H](O)[C@H]1C(=O)N2C(C(=O)O)=C(S[C@@H]3CN[C@H](C(=O)N(C)C)C3)[C@H](C)[C@H]12	0.06 µg/mL
O=C(N[C@H](CO)[C@H](O)c1ccc([N+](=O)[O-])cc1)C(Cl)Cl	1 µg/mL
CCC[C@@H]1C[C@@H](C(=O)N[C@@H]([C@H]2O[C@H](SC)[C@H](O)[C@@H](O)[C@H]2O)[C@H](C)Cl)N(C)C1	0.12 µg/mL
CCN1CCN(C(=O)N[C@@H](C(=O)N[C@@H]2C(=O)N3[C@@H]2SC(C)(C)[C@@H]3C(=O)O)c2ccccc2)C(=O)C1=O	0.12 µg/mL

Then there is this molecule:
Param item = "CC1(C)S[C@@H]2[C@H](NC(=O)Cc3ccccc3)C(=O)N2[C@H]1C(=O)O" ; retrieve measured MIC50.
0.03 µg/mL

* * *

# System: Finegoldia magna
# assayComment: Antibacterial activity against beta-lactamase producing Finegoldia magna by CLSI agar dilution method
# Type: functional
Kindly state log10 of MIC90 for each of the entries shown.
Plainly stated, the numbers are log10 of MIC90 given in µg/mL.

These solved cases illustrate the format of a correct answer.
smilesRepresentation	log10 of MIC90
C[C@H]1COc2c(N3CCN(C)CC3)c(F)cc3c(=O)c(C(=O)O)cn1c23.C[C@H]1COc2c(N3CCN(C)CC3)c(F)cc3c(=O)c(C(=O)O)cn1c23.O	1.51
CCN1CCN(C(=O)N[C@@H](C(=O)N[C@@H]2C(=O)N3[C@@H]2SC(C)(C)[C@@H]3C(=O)O)c2ccccc2)C(=O)C1=O	0.90
C[C@@H](O)[C@H]1C(=O)N2C(C(=O)O)=C(S[C@@H]3CN[C@H](C(=O)Nc4cccc(C(=O)O)c4)C3)[C@H](C)[C@H]12	0.00
CO[C@@]1(NC(=O)CSCC#N)C(=O)N2C(C(=O)O)=C(CSc3nnnn3C)CS[C@@H]21	0.90
C[C@@H](O)[C@H]1C(=O)N2C(C(=O)O)=C(S[C@@H]3CN[C@H](C(=O)N(C)C)C3)[C@H](C)[C@H]12	-0.30

Hey, can you go through the list below and give me log10 of MIC90 for every item?
1. O=C(N[C@H](CO)[C@H](O)c1ccc([N+](=O)[O-])cc1)C(Cl)Cl
2. CCC[C@@H]1C[C@@H](C(=O)N[C@@H]([C@H]2O[C@H](SC)[C@H](O)[C@@H](O)[C@H]2O)[C@H](C)Cl)N(C)C1

[0.60, 0.60]
